TEST_TARGET: ACK1 (Homo sapiens)
Sequence (Q07912 whole entry): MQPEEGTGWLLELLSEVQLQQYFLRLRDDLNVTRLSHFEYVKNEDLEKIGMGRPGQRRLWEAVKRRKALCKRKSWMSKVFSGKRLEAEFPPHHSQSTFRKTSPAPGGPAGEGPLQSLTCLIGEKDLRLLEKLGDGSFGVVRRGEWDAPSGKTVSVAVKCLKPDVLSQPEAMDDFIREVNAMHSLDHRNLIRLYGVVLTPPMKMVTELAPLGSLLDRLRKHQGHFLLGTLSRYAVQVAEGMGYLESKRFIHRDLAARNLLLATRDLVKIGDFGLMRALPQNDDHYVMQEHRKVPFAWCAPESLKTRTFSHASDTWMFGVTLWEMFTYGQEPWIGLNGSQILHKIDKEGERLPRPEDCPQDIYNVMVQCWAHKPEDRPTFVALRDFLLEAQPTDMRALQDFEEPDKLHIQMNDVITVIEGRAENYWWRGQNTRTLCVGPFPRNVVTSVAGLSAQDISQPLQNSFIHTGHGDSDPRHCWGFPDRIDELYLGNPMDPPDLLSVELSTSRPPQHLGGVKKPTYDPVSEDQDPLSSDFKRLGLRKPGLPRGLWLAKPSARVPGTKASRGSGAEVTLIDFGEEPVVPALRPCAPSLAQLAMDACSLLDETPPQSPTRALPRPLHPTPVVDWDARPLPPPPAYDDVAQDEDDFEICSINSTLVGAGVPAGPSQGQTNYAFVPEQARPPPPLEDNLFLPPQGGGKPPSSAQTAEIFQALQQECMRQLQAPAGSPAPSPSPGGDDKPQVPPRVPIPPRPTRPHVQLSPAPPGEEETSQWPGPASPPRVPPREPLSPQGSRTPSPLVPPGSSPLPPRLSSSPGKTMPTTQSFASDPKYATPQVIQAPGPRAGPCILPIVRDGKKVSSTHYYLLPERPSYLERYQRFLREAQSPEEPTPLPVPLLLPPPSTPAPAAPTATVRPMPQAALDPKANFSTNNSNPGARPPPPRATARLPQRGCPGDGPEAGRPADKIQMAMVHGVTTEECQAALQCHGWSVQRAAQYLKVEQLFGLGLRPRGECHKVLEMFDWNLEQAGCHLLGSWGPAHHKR
MEASUREMENT_NOTES: ACK1 ELISA: phosphorylation of AKT-derived peptide
Assay type: biochemical
REPORTED_CONDITIONS: 10 μM; Table 1, replicate values listed
QUANTITY_MEASURED: % Inhibition at 10 μM (ELISA) (%)
Give the value in % but do not write % after it.

In [3]: df
Out[3]:
                                   compound              quantity_measured  value_unit  value_reported
0  CN1CCN(c2ccc(Nc3ncc(F)c(NCC4CCCO4)n3)cc2)CC1 (stereo not drawn)  % Inhibition at 10 μM (ELISA)           %              48
1  O=C(O)CCC(=O)N1CCN(c2ccc(Nc3ncc(Br)c(NCC4CCCO4)n3)cc2)CC1 (stereo not drawn)  % Inhibition at 10 μM (ELISA)           %              90
2  CN1CCN(c2ccc(Nc3ncc(Cl)c(NCC4CCCO4)n3)cc2)CC1 (stereo not drawn)  % Inhibition at 10 μM (ELISA)           %              91
3  O=C(O)C1CCN(c2ccc(Nc3ncc(Cl)c(NCC4CCCO4)n3)cc2)CC1 (stereo not drawn)  % Inhibition at 10 μM (ELISA)           %              96
4  O=C(O)C1CCN(c2ccc(Nc3ncc(Br)c(NCC4CCCO4)n3)cc2)CC1 (stereo not drawn)  % Inhibition at 10 μM (ELISA)           %              84
5  Cl.O=C(O)Cc1ccc(Nc2ncc(Br)c(NCC3CCCO3)n2)cc1 (stereo not drawn)  % Inhibition at 10 μM (ELISA)           %              63
6  CN1CCN(c2ccc(Nc3ncc(Br)c(NCC4CCCO4)n3)cc2)CC1 (stereo not drawn)  % Inhibition at 10 μM (ELISA)           %              91
7  O=C(Nc1c(F)cccc1Cl)c1cnc(Nc2ccc(O)cc2)nc1NCC1CCCO1 (stereo not drawn)  % Inhibition at 10 μM (ELISA)           %              76
8  CN1CCN(c2ccc(Nc3ncc(C(=O)Nc4c(F)cccc4Cl)c(NCC4CCCO4)n3)cc2)CC1 (stereo not drawn)  % Inhibition at 10 μM (ELISA)           %              95
9  CN1CCN(c2ccc(Nc3ncc(Cl)c(NC[C@H]4CCCO4)n3)cc2)CC1  % Inhibition at 10 μM (ELISA)           %              91

Q. Identify the reported % Inhibition at 10 μM (ELISA) for the following entry. Cl.O=C(O)Cc1ccc(Nc2ncc(Cl)c(NC[C@H]3CCCO3)n2)cc1
A. 74

Q. Given Cl.O=C(O)Cc1ccc(Nc2ncc(Cl)c(NCC3CCCO3)n2)cc1 (stereo not drawn) , respond with its % Inhibition at 10 μM (ELISA).
A. 81

Q. Quote % Inhibition at 10 μM (ELISA) reported for CC(C)S(=O)(=O)c1ccccc1Nc1nc(Nc2ccc(C(N)=O)cc2)ncc1C(=O)Nc1c(F)cccc1Cl please.
A. 43

Q. Output % Inhibition at 10 μM (ELISA) of Cl.O=C(O)CCCc1ccc(Nc2ncc(Cl)c(NC[C@@H]3CCCO3)n2)cc1
A. 64

Q. Supply % Inhibition at 10 μM (ELISA) value. Item: Oc1ccc(Nc2ncc(Cl)c(NCC3CCCO3)n2)cc1 (stereo not drawn)
A. 58

Q. Supply measured % Inhibition at 10 μM (ELISA) of Cl.O=C(O)CCc1ccc(Nc2ncc(Cl)c(NC[C@H]3CCCO3)n2)cc1 in your reply.
A. 75

Q. Answer with reported % Inhibition at 10 μM (ELISA) of O=C(O)CCCc1ccc(Nc2ncc(Cl)c(NCC3CCCO3)n2)cc1 (stereo not drawn)
A. 65

Q. Give the measured % Inhibition at 10 μM (ELISA) for CCCSc1ccccc1Nc1nc(Nc2ccc(O)cc2)ncc1C(=O)Nc1c(F)cccc1Cl
A. 27
